molecular target: PDE10 (UniProt Q8CA95); experiment: PDE10 enzyme inhibition, IMAP TR-FRET assay (Example A: MPDE10A7 Enzyme Activity and Inhibition); assay type: biochemical; conditions: Table 2A, Examples 61-64; read-out: IC50
What pIC50 was measured for each of the following?
One number for each entry, as −log10 of the molar value.

[[record]]
compound = "COc1cccc(-c2nccnc2N2CC(c3ccc4ccccc4n3)C2)c1"
measured_parameter = "pIC50"
meas_value = 7.76

[[record]]
compound = "OCC1CCN(c2nccnc2N2CC(c3ccc4ccccc4n3)C2)CC1"
measured_parameter = "pIC50"
meas_value = 6.45

[[record]]
compound = "CC1CCN(c2nccnc2N2CC(c3ccc4ccccc4n3)C2)C1 (stereo not shown)"
measured_parameter = "pIC50"
meas_value = 6.19


Please look at the following compound next.
Challenge: What does the record list as pIC50 for CC1CCN(c2nccnc2N2CC(c3ccc4ccccc4n3)C2)CC1 ?
Response given: 5.51

###

Target: PDE10 (UniProt Q8CA95)
Sequence (Q8CA95 1-790): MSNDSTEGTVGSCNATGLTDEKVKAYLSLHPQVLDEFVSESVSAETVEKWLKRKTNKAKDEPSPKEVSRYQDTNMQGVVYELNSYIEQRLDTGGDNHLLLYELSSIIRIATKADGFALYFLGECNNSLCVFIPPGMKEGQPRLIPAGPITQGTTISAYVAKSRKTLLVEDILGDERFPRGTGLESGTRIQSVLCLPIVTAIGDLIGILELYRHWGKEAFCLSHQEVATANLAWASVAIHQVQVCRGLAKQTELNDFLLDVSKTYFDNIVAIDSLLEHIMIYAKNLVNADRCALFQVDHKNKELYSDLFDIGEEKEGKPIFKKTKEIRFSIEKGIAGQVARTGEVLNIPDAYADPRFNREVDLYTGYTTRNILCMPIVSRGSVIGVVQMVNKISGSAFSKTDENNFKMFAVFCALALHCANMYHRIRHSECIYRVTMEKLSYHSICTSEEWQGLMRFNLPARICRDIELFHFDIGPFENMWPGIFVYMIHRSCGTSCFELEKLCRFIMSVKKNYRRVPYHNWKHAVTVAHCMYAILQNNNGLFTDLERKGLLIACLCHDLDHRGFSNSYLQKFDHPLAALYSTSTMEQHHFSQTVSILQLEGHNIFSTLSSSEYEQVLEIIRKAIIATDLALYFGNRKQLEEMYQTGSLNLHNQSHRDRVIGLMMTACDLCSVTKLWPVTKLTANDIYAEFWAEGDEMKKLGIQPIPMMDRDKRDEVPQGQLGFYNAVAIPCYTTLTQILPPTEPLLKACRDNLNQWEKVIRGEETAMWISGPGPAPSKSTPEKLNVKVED
Assay: PDE10 enzyme inhibition, IMAP TR-FRET assay (Example A: MPDE10A7 Enzyme Activity and Inhibition)
Format: biochemical
Conditions: read-out: IC50
Measured Parameter: IC50 (µM)
Give bare numbers, in µM.

[[record]]
molecule = "Cc1ccc2[nH]c(C3CN(c4c(Cl)cncc4-c4ccccc4)C3)nc2c1 [Example 2B]"
system_name = "PDE10 (UniProt Q8CA95)"
measured_parameter = "IC50"
scale_unit = "µM"
meas_value = 0.022


// input: 3 molecules below; output: IC50 for each
1. Clc1ccc2[nH]c(C3CN(c4nccnc4C4CCOCC4)C3)nc2c1 [Example 8]
2. N#Cc1ccc2[nH]c(C3CCN(c4nccnc4-c4ccccc4)CC3)nc2c1 [Example 1A]
3. N#Cc1ccc2[nH]c(C3CCN(c4nccnc4N4CCOCC4)CC3)nc2c1 [Example 1B]

Response given:
[1.16, 0.272, 2]
